The measured values listed here are drawn from patent US20230416329A1.

# test-target: bovine trypsin (bovine, UniProt P00760 24-246)
# Sequence (P00760 24-246): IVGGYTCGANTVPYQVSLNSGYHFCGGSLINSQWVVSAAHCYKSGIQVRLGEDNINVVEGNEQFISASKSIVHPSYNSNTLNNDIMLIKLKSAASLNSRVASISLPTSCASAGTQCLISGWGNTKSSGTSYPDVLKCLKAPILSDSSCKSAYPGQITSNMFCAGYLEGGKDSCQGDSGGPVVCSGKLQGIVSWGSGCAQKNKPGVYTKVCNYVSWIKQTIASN
# test-description: trypsin inhibition, BApNA substrate
Bridge positions count the residues as written; N and C are the ends. Ends that are not written are not given here.
reported-property: pKi
Please treat pKi as minus the base-10 logarithm of the molar concentration.

Here is how some binders turned out for pKi.
CGRATRSIPPICY (disulfide 1-12 (inferred)) [BT18]    5.08
CGRATRSIPPICA (disulfide 1-12 (inferred)) [BT19]    5.03

Let's switch to this binder now.
Query: Can you look up the measured pKi of CPRATKSIPPICF (disulfide 1-12 (inferred)) [BT66] for me?
Response: 8.00
